compounds and their reported pIC50
- experimental-target: p110γ (Homo sapiens)
- Sequence (P48736 whole entry, species assumed): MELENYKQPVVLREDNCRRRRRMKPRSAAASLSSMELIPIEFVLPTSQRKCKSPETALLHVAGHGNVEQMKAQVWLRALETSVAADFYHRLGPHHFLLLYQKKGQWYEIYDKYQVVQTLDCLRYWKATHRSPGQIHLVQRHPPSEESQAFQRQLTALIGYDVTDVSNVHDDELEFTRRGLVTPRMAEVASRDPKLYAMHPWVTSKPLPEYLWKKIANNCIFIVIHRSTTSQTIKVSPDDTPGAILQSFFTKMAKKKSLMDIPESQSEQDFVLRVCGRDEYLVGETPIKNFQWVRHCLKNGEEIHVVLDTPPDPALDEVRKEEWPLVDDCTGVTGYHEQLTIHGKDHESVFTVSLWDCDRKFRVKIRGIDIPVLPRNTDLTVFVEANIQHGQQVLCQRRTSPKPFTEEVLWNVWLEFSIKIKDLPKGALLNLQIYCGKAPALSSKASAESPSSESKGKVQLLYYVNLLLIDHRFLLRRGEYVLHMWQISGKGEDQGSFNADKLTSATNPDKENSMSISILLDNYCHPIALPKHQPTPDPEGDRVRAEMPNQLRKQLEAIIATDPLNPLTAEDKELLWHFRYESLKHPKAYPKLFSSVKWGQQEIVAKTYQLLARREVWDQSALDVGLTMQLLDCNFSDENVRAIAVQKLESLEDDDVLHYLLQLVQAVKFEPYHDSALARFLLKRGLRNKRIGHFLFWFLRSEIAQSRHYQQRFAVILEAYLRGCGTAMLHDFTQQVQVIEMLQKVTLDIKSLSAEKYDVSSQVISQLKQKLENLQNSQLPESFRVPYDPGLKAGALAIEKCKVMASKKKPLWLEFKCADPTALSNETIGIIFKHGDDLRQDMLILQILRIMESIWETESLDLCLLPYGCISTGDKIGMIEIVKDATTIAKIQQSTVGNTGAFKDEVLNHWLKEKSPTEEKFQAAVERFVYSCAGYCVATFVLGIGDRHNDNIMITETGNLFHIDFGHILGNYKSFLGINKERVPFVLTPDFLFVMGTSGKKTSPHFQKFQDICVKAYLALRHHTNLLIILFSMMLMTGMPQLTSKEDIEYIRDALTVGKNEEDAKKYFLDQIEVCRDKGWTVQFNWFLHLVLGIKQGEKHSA
- test-details: Phosphatidylinositide 3-kinase scintillation proximity assay, p110γ
- Format: biochemical
- settings: read-out: IC50 against p110γ; 1 μmol/L ATP
pIC50: −log10 of the molar value.

CN1CCN(Cc2cc3nc(-c4cccc(O)c4)nc(N4CCOCC4)c3s2)CC1 :: < 6.52

input: Write pIC50 of OCCN1CCN(Cc2cc3nc(-c4cccc(O)c4)nc(N4CCOCC4)c3s2)CC1 ; system used: p110γ (Homo sapiens)
output: < 6.52

The origin of these recorded values is paper PMC2718129.
